Source listed as patent US20100311714A1.

Tested on: PKB Ser473 phosphorylation in Rat1-myr-HA-p110 beta cells
Assay: Reverse protein array, PKB Ser473 phosphorylation in Rat1-myr-HA-p110 beta cells
Assay type: cell-based
Conditions: Rattus norvegicus, 0.5 h, 30 minutes compound incubation, read-out: p-PKB/IC50_beta
readout: IC50 (nM)

Answered cases to consult:
INSERT INTO assay_data (smiles, readout, recorded_number) VALUES
  ('COCCN(C)c1ccc(-n2c(=O)n(C)c3cnc4ccc(-c5cnc(CO)c(OC)c5)cc4c32)c(C)n1', 'IC50', 40.4),
  ('CCNc1cc(-c2ccc3ncc4c(c3c2)n(-c2ccc(N3CC(O)C3)nc2C)c(=O)n4C)cnc1CO', 'IC50', 32.7);

P = COc1ccc(-c2ccc3ncc4c(c3c2)n(-c2ccc(OC)nc2C)c(=O)n4C)cn1
Q = COc1cc(-c2ccc3ncc4c(c3c2)n(-c2ccc(N3CC[C@H](O)C3)nc2C)c(=O)n4C)cnc1CO
R = CNc1cc(-c2ccc3ncc4c(c3c2)n(-c2cccnc2C)c(=O)n4C)cnc1C
Ordering: ascending IC50. Please reply with the labels ordered as requested. Many thanks.
R, P, Q

----------
Target: PI3K alfa (Homo sapiens)
Construct: His tag (C); made in house; host or cells: baculovirus BV1075; Tn5 (Trichoplusia ni) or TiniPro insect cells
Sequence (P42336 with tags, fused parts or gaps limits assumed): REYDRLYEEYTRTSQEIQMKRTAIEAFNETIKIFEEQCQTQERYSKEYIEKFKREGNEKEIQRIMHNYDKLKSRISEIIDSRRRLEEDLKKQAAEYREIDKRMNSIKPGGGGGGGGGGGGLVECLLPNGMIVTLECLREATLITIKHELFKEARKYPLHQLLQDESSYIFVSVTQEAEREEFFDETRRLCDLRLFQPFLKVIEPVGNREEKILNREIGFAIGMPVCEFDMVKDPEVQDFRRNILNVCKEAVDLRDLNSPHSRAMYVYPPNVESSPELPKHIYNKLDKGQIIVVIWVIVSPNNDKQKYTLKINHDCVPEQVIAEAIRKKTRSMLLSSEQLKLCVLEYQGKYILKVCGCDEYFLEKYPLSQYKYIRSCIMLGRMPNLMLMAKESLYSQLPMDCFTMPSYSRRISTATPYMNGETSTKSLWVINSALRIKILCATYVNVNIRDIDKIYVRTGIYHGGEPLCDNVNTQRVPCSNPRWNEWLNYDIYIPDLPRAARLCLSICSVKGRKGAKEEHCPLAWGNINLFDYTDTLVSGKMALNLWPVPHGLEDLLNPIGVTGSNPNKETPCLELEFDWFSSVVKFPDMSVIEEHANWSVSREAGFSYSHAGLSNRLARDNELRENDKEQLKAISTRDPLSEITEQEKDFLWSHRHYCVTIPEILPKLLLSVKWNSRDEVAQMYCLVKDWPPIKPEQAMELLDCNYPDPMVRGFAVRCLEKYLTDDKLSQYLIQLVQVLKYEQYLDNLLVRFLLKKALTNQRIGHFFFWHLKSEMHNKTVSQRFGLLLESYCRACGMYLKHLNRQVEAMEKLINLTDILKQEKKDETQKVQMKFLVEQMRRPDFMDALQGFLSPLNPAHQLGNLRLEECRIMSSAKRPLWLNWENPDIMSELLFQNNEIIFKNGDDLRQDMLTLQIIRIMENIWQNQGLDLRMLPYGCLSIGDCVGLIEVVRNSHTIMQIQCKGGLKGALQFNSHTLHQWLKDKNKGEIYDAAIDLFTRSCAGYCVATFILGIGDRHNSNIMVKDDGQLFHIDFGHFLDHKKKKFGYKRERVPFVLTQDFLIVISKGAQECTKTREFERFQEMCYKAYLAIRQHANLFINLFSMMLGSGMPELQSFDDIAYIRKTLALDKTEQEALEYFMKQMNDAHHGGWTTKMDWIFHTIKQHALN
Assay: PI3K alpha kinase assay (Kinase-Glo luminescence)
Format: biochemical
Conditions: read-out: EPK_PI3Kalfa/IC50
Protocol: In a more preferred assay, the kinase reaction is performed in a final volume of 10 μL per well of a low volume non binding CORNING, 384 well black plate (Cat. No. #3676). The final concentrations of ATP and phosphatidyl inositol (PI) in the assay are 1 μM and 10 μg/mL respectively. […] IC50 is determined by a four parameter curve fitting routine that comes along with “excel fit”. […] Alternatively, IC50 values are calculated using idbsXLfit model 204, which is a 4 parameter logistic model.
pIC50: −log10 of the molar value.
readout: pIC50

Answered cases to consult:
INSERT INTO measurements (molecule, readout, recorded_number) VALUES
  ('CCNc1cc(-c2ccc3ncc4c(c3c2)n(-c2ccc(N(C)CC)nc2C)c(=O)n4C)cnc1C [Example 12.2]', 'pIC50', 7.82),
  ('Cc1nc(N2CC(F)(F)C(F)(F)C2)ccc1-n1c(=O)n(C)c2cnc3ccc(-c4cnc(N)c(CO)c4)cc3c21 [Example 35.4]', 'pIC50', 7.41),
  ('CNc1ccc(-c2ccc3ncc4c(c3c2)n(-c2cnc(F)cc2C)c(=O)n4C)cn1 [Example 16.4]', 'pIC50', 7.33),
  ('COCCN(C)c1ccc(-n2c(=O)n(C)c3cnc4ccc(-c5cnc(N)c(C(F)(F)F)c5)cc4c32)c(C)n1 [Example 15.1]', 'pIC50', 8.15),
  ('CNc1ncc(-c2ccc3ncc4c(c3c2)n(-c2ccc(F)nc2C)c(=O)n4C)cc1F [Example 7.12]', 'pIC50', 7.36);

1 = CNc1ncc(-c2ccc3ncc4c(c3c2)n(-c2ccc(N(C)CCO)nc2C)c(=O)n4C)cn1 [Example 26.2]
2 = CCNc1ncc(-c2ccc3ncc4c(c3c2)n(-c2ccc(N3CC[C@@H](O)C3)nc2C)c(=O)n4C)cc1C(F)(F)F [Example 34.2]
3 = COCCOc1ccc(-n2c(=O)n(C)c3cnc4ccc(-c5cncc(N6CCC6)c5)cc4c32)c(C)n1 [Example 22.2]
Ordering: ascending pIC50. Please reply with the labels ordered as requested. Many thanks.
3, 1, 2
(3: 6.77, 1: 7.20, 2: 7.55)

A = CNc1cc(-c2ccc3ncc4c(c3c2)n(-c2cccnc2C)c(=O)n4C)cnc1C [Example 2.32]
B = COc1ccc(-n2c(=O)n(C)c3cnc4ccc(-c5cnc(N(C)C)nc5)cc4c32)c(Cl)n1 [Example 18.3]
Sort A and B by pIC50 descending and give the first. Reply briefly: the label of your chosen item.
B
(B: 8.30, A: 7.51)

P = Cc1nc(F)ccc1-n1c(=O)n(C)c2cnc3ccc(-c4cncc(C(C)(C)O)c4)cc3c21 [Example 7.8]
Q = COCc1ncc(-c2ccc3ncc4c(c3c2)n(-c2ccc(N3CCC3)nc2C)c(=O)n4C)cc1OC [Example 23.6]
Sort P and Q by pIC50 descending and give the first. Reply briefly: the label of your chosen item.
P

a = COCCOc1ccc(-n2c(=O)n(C)c3cnc4ccc(-c5cnc(N)c(C(F)(F)F)c5)cc4c32)c(C)n1 [Example 13.2]
b = CCOc1cc(-c2ccc3ncc4c(c3c2)n(-c2ccc(N3CCC3)nc2C)c(=O)n4C)cnc1COC [Example 23.5]
Sort a and b by pIC50 descending and give the first. Reply briefly: the label of your chosen item.
b
(b: 7.68, a: 7.44)

----------
Biological target: PI3K beta (Homo sapiens, UniProt P42338)
Construct: for the full-length p110-b subunit are generated and fused by overlapping PCR; His tag (C); made in house; host or cells: baculovirus BV949; Tn5 (Trichoplusia ni) or TiniPro insect cells
Sequence (P42338 with tags, fused parts or gaps limits assumed): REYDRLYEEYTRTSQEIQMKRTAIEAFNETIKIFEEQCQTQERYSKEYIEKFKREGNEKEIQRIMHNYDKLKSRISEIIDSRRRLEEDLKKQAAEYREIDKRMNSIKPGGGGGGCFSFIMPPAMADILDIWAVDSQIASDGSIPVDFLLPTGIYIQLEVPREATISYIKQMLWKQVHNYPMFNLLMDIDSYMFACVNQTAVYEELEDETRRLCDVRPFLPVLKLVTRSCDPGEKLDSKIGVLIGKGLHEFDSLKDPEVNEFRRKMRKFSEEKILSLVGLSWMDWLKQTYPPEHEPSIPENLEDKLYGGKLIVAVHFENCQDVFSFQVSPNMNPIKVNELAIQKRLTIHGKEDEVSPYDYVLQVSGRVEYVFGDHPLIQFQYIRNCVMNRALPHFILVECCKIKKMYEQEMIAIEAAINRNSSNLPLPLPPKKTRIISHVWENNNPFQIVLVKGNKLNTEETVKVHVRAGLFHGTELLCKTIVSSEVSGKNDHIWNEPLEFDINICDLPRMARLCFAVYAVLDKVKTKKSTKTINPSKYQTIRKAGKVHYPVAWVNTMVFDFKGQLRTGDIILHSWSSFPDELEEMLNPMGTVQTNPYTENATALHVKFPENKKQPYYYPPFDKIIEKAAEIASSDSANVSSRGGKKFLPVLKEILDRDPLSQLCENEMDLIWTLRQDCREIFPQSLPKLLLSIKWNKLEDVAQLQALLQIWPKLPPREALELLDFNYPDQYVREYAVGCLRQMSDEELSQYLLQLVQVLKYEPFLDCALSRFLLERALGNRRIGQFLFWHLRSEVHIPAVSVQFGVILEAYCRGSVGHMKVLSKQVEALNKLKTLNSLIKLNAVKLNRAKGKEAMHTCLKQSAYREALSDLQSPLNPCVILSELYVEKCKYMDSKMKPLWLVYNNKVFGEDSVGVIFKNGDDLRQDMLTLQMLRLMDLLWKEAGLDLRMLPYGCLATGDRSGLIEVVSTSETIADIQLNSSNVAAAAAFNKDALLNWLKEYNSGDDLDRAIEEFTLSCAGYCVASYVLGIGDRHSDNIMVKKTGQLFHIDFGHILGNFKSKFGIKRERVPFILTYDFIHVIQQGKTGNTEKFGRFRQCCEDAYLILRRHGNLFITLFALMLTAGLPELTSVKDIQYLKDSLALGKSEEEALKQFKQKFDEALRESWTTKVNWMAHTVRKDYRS
Experiment: PI3K beta kinase assay (Kinase-Glo luminescence)
Format: biochemical
Conditions: read-out: EPK_PI3Kbeta/IC50
readout: IC50 (nM)

Answered cases to consult:
INSERT INTO assay_data (compound, recorded_number) VALUES
  ('COc1cc(-c2ccc3ncc4c(c3c2)n(-c2ccc(N3CCC(OC)C3)nc2C)c(=O)n4C)cnc1CO (stereo not shown) [Example 28.3]', 175),
  ('CNc1ncc(-c2ccc3ncc4c(c3c2)n(-c2ccc(C(C)(C)O)nc2C)c(=O)n4C)cc1F [Example 31.1]', 217);

a = Cc1nc(F)ccc1-n1c(=O)n(C)c2cnc3ccc(-c4cncc(N)c4)cc3c21 [Example 7.16]
b = COCc1ncc(-c2ccc3ncc4c(c3c2)n(-c2cccnc2C)c(=O)n4C)cc1OC [Example 2.30]
c = COCCOc1ccc(-n2c(=O)n(C)c3cnc4ccc(-c5cnc(N)c(C(F)(F)F)c5)cc4c32)c(C)n1 [Example 13.2]
d = Cc1nc(C(F)(F)F)ccc1-n1c(=O)n(C)c2cnc3ccc(-c4cncc(C(C)(C)O)c4)cc3c21 [Example 33.1]
List items by IC50 in falling order. Please reply with the labels ordered as requested. Many thanks.
b, a, d, c

----------
Test system: S6 Ribosomal Protein phosphorylation Ser235/236 in TSC1 null mouse embryo fibroblast (MEF) cells
Assay: Reverse protein array, S6 Ribosomal Protein phosphorylation in TSC1 null MEF cells
Assay type: cell-based
Details: 1 h, TSC1-/- MEFs, 60 minutes, read-out: p-S6 IC50
readout: pIC50
Scale explanation: pIC50 corresponds to minus log10 of a concentration expressed in moles per litre.

INSERT INTO results (compound, recorded_number) VALUES
  ('CNc1cc(-c2ccc3ncc4c(c3c2)n(-c2ccc(C(F)(F)F)nc2C)c(=O)n4C)cnc1CO [Example 33.2]', 8.70);

Query: pIC50; subject: CNc1ncc(-c2ccc3ncc4c(c3c2)n(-c2ccc(N3CC(F)(F)C3)nc2C)c(=O)n4C)cn1 [Example 24.1]
8.70

What do you have for CCNc1cc(-c2ccc3ncc4c(c3c2)n(-c2cnc(F)cc2C)c(=O)n4C)cnc1C [Example 16.2] ?
8.22

What do you have for Cc1nc(F)ccc1-n1c(=O)n(C)c2cnc3ccc(-c4cncc(N5CCC5)c4)cc3c21 [Example 7.6] ?
8.15

What do you have for COCCN(C)c1ccc(-n2c(=O)n(C)c3cnc4ccc(-c5cnc(N)c(C(F)(F)F)c5)cc4c32)c(C)n1 [Example 15.1] ?
9.00

What do you have for Cc1nc(N2CC(F)(F)C(F)(F)C2)ccc1-n1c(=O)n(C)c2cnc3ccc(-c4cncc(C(C)(C)O)c4)cc3c21 [Example 35.1] ?
9.10

----------
Target: PI3K beta (Homo sapiens)
Construct: for the full-length p110-b subunit are generated and fused by overlapping PCR; His tag (C); made in house; host or cells: baculovirus BV949; Tn5 (Trichoplusia ni) or TiniPro insect cells
Assay: PI3K beta kinase assay (Kinase-Glo luminescence)
Assay type: biochemical
Conditions: read-out: EPK_PI3Kbeta/IC50
pIC50: −log10 of the molar value.
readout: pIC50

a = Cc1nc(N2CC(F)(F)C2)ccc1-n1c(=O)n(C)c2cnc3ccc(-c4cncc(C(C)(C)O)c4)cc3c21 [Example 24.2]
b = CCNc1cc(-c2ccc3ncc4c(c3c2)n(-c2ccc(N(C)CCO)nc2C)c(=O)n4C)cnc1CO [Example 26.3]
c = CNc1ccc(-c2ccc3ncc4c(c3c2)n(-c2ccc(NC(=O)COC)nc2C)c(=O)n4C)cn1 [Example 20.4]
d = CNc1cc(-c2ccc3ncc4c(c3c2)n(-c2ccc(F)nc2C)c(=O)n4C)cnc1CO [Example 7.11]
Arrange the 4 compounds from largest to smallest pIC50. Please reply with the labels ordered as requested. Many thanks.
a, d, c, b

----------
Assay: Parallel Artificial Membrane Permeability Assay (PAMPA) at pH 6.8
Assay type: physicochemical
readout: HT-perm/logPe pH6.8

INSERT INTO measurements (smiles, recorded_number) VALUES
  ('COc1ncccc1-n1c(=O)n(C)c2cnc3ccc(-c4cnc5c(ccn5C)c4)cc3c21', '−3.8'),
  ('COc1ccc(-c2ccc3ncc4c(c3c2)n(-c2cccnc2)c(=O)n4C)cc1OC', '−3.9'),
  ('Cc1nc(F)ccc1-n1c(=O)n(C)c2cnc3ccc(-c4cnc(N)c(C(F)(F)F)c4)cc3c21', '−3.8'),
  ('CNc1ccc(-c2ccc3ncc4c(c3c2)n(-c2cccnc2OC)c(=O)n4C)cn1', '−3.9'),
  ('CNc1ccc(-c2ccc3ncc4c(c3c2)n(-c2ccc(F)nc2C)c(=O)n4C)cn1', '−4.3'),
  ('CCOc1ccc(-c2ccc3ncc4c(c3c2)n(-c2cccnc2F)c(=O)n4C)cn1', '−3.9'),
  ('CCOc1ccc(-c2ccc3ncc4c(c3c2)n(-c2ccc(OC)nc2OC)c(=O)n4C)cn1', '−4.3'),
  ('Cc1ccncc1-n1c(=O)n(C)c2cnc3ccc(-c4ccc(N(C)C)nc4)cc3c21', '−3.8');
